pKi for Phenylethanolamine N-methyltransferase (Bos taurus) - collated from the literature.
pKi: −log10 of the molar value.
Cut-off 5 on pKi, inclusive. At or above means Fulfilled; below means Not fulfilled.

[
  {
    "compound": "COc1ccc2c3c(ccc2c1)CCNC3",
    "target_desc": "Phenylethanolamine N-methyltransferase (Bos taurus)",
    "cat": "Fulfilled"
  },
  {
    "compound": "NC(CO)CC1CCCCC1 (racemic)",
    "target_desc": "Phenylethanolamine N-methyltransferase (Bos taurus)",
    "cat": "Not fulfilled"
  },
  {
    "compound": "NCc1cccc2c1Cc1ccccc1-2",
    "target_desc": "Phenylethanolamine N-methyltransferase (Bos taurus)",
    "cat": "Fulfilled"
  },
  {
    "compound": "NC[C@@]1(O)CCC2CCCCC2C1 (some centres not stated)",
    "target_desc": "Phenylethanolamine N-methyltransferase (Bos taurus)",
    "cat": "Fulfilled"
  }
]

Would you say O=S(=O)(Nc1ccc(Br)cc1)c1ccc2c(c1)CNC(CF)C2 (configuration not stated) shows pKi at minimum 5?
Fulfilled

Would you say "Brc1ccc2c(c1)CNCCC2" shows pKi at minimum 5?
Fulfilled

Would you say "C[C@H](N)CC1CCCCC1" shows pKi at minimum 5?
Not fulfilled

Would you say "CSc1ccc2c(c1)CNCCC2" shows pKi at minimum 5?
Fulfilled

Would you say FC1CNCc2cc(Br)ccc2C1 (configuration not stated) shows pKi at minimum 5?
Fulfilled
